IRAK4 (Homo sapiens (Human), UniProt Q9NWZ3): reported IC50 for various compounds.
Sequence (Q9NWZ3 whole entry, species assumed): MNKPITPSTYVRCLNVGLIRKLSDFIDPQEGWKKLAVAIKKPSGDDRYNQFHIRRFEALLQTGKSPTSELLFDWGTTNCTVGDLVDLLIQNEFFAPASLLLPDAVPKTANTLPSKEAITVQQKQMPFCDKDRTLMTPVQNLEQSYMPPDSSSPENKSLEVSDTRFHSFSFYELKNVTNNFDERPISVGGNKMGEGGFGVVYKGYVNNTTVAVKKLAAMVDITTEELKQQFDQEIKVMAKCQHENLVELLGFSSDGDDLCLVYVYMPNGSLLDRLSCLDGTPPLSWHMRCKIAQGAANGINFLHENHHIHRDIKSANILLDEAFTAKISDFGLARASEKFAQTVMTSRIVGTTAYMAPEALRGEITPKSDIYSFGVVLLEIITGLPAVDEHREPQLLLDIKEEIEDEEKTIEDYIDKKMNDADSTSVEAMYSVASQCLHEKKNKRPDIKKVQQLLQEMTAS
Numbers only, in nM.

Answered examples (6):
CC(C)(O)CCNc1c(C(=O)NC[C@@H](F)C(C)(C)O)cnn2cc(-c3ccc(F)nc3)cc12	170
COc1ncccc1-c1cc2c(NC(C)C)c(C(=O)N[C@H]3CC[C@H](NC(C)=O)CC3)cnn2c1	29
CC(C)Nc1c(C(=O)NC[C@@H](F)C(C)(C)O)cnn2cc(-c3ccc(C#N)cc3)cc12	12
CC(=O)N[C@H]1CC[C@H](NC(=O)c2cnn3cc(-c4ccc(CO)nc4)cc3c2NC(C)C)CC1	3.1
CC(C)Nc1c(C(=O)N[C@H]2C[C@H](C(C)(C)O)C2)cnn2cc(-c3ccc(F)nc3)nc12	840
CC(C)Nc1c(C(=O)NC[C@@H](F)C(C)(C)O)cnn2cc(-c3ccc(F)cc3)nc12	39

Lab note: each compound below needs its IC50 filled in.
1. CC(C)Nc1c(C(=O)NC[C@@H](F)C(C)(C)O)cnc2cc(-c3cncc(F)c3)nn12
2. CC(C)(O)[C@H](F)CNC(=O)c1cnn2cc(-c3ccncc3)cc2c1NC1CCOCC1

OUTPUT:
[110, 17]

====

Target: JAK3 kinase (Homo sapiens (Human))
pIC50: −log10 of the molar value.
readout: pIC50

Solved entries (count: 10):
CC(C)Nc1c(C(=O)NC[C@@H](F)C(C)(C)O)cnn2cc(C3CC3)cc12	< 4.30
CC(C)(O)CCNc1c(C(=O)NC[C@@H](F)C(C)(C)O)cnn2cc(-c3ccc(F)nc3)cc12	< 4.30
CC(C)Nc1c(C(=O)NC[C@@H](F)C(C)(C)O)cnn2cc(-c3ccncc3)nc12	< 4.30
CC(C)Nc1c(C(=O)NC[C@@H](F)C(C)(C)O)cnc2cc(-c3cccc(C#N)c3)nn12	< 5.70
CC(C)Nc1c(C(=O)NCCC(C)(C)O)cnn2cc(-c3ccncc3)nc12	< 4.30
Cc1cc(F)ncc1-c1cc2c(NC(C)C)c(C(=O)N[C@H]3CC[C@H](C(=O)N4CCOCC4)CC3)cnn2c1	~4.31
CC(C)Nc1c(C(=O)NC[C@@H](F)C(C)(C)O)cnc2cc(-c3cccnc3)nn12	< 5.00
COc1cccc(-c2cc3ncc(C(=O)NC[C@@H](F)C(C)(C)O)c(NC(C)C)n3n2)n1	< 4.30
CC(C)(O)CCNc1c(C(=O)NC[C@@H](F)C(C)(C)O)cnn2cc(-c3ccncc3)cc12	< 4.30
CC(C)(O)[C@H](F)CNC(=O)c1cnn2cc(-c3ccc(C#N)cn3)cc2c1NC1CCOCC1	< 4.30

Consider the following items and state reported pIC50 for each.
1. CC(C)Nc1c(C(=O)NC[C@@H](F)C(C)(C)O)cnn2cc(-c3ccc(F)cc3)nc12
2. CC(C)Nc1c(C(=O)NCCC(C)(C)O)cnn2cc(-c3cn[nH]c3)nc12
3. CC(C)Nc1c(C(=O)NC[C@@H](F)C(C)(C)O)cnc2cc(-c3cccc(N)c3)nn12

OUTPUT:
["< 5.00", "< 4.30", "< 4.30"]

====

Would you kindly list Ratio of JAK3 IC50 to IRAK4 IC50 for each of these compounds?
Molecular target: JAK3 kinase (Homo sapiens (Human), UniProt P52333)
Sequence (P52333 whole entry): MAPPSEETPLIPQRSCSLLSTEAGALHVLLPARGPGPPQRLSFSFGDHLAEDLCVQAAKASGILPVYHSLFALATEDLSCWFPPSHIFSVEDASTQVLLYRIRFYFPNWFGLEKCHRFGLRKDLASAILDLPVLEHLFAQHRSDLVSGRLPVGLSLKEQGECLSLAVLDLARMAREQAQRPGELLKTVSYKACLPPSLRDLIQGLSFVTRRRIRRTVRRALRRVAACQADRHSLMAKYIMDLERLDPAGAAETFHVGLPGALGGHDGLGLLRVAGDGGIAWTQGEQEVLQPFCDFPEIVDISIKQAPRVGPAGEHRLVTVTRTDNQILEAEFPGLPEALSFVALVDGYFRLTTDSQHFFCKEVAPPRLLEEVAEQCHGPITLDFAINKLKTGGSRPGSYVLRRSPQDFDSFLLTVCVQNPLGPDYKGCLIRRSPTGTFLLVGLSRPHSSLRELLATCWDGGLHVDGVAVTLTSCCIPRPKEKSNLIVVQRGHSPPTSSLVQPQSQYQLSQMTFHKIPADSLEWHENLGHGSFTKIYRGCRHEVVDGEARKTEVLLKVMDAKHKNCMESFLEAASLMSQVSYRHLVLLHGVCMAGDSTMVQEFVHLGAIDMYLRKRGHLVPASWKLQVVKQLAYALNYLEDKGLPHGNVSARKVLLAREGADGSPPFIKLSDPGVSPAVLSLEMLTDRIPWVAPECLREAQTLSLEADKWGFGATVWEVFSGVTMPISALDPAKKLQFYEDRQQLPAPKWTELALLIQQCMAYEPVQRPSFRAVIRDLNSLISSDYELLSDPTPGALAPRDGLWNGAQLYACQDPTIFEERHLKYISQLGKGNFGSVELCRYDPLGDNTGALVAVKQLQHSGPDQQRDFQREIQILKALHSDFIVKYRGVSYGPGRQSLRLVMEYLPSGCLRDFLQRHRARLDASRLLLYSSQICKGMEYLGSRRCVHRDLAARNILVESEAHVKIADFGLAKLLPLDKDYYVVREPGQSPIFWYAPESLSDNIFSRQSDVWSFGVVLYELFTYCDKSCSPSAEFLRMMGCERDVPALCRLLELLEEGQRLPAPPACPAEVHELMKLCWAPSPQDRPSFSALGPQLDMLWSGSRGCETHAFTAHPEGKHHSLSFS
Experiment: JAK3 Homogeneous Time Resolved Fluorescence (HTRF) Assay
Assay type: binding
Conditions: selectivity for IRAK4 over JAK3

CNC(=O)c1cncc(-c2cc3ncc(C(=O)NC[C@@H](F)C(C)(C)O)c(NC(C)C)n3n2)c1	>11
COc1cc(-c2cc3c(NC(C)C)c(C(=O)NCCC(C)(C)O)cnn3c2)c(F)cn1	>5495
CC(C)Nc1c(C(=O)NC[C@@H](F)C(C)(C)O)cnc2cc(-c3cccc(Cl)n3)nn12	>8

Hey, can you go through the list below and give me Ratio of JAK3 IC50 to IRAK4 IC50 for every item?
1. COC(=O)Nc1cc(-c2cc3c(NC(C)C)c(C(=O)NC[C@@H](F)C(C)(C)O)cnn3c2)ccn1
2. CC(C)(O)[C@H](F)CNC(=O)c1cnn2cc(-c3ccccc3)cc2c1NC1CC1
3. CC(C)Nc1c(C(=O)NC[C@@H](F)C(C)(C)O)cnn2cc(-c3cccc(CN4CCOCC4)c3)cc12

OUTPUT:
1: >5495; 2: >61; 3: >6

Please go through the list and note Ratio of JAK3 IC50 to IRAK4 IC50 for each compound.
1. Cc1cncc(-c2cc3ncc(C(=O)NC[C@@H](F)C(C)(C)O)c(NC(C)C)n3n2)c1
2. COc1cc(-c2cc3ncc(C(=O)NC[C@@H](F)C(C)(C)O)c(NC(C)C)n3n2)ccn1

OUTPUT:
1: >104; 2: >164

Report Ratio of JAK3 IC50 to IRAK4 IC50 for each item below.
1. CC(C)Nc1c(C(=O)NC[C@@H](F)C(C)(C)O)cnc2cc(-c3cncnc3)nn12
2. CC(=O)N[C@H]1CC[C@H](NC(=O)c2cnn3cc(-c4c(C)ccnc4F)cc3c2NC(C)C)CC1
3. CC(C)Nc1c(C(=O)N[C@H]2CC[C@H](N)CC2)cnn2cc(-c3cccnc3)cc12
4. CC(C)Nc1c(C(=O)NC[C@@H](F)C(C)(C)O)cnn2cc(-c3ccncc3)cc12
5. COc1ncccc1-c1cc2c(NC(C)C)c(C(=O)N[C@H]3CC[C@H](NC(C)=O)CC3)cnn2c1
6. CC(C)Nc1c(C(=O)NC[C@@H](F)C(C)(C)O)cnc2cc(-c3cccc(N)c3)nn12

OUTPUT:
1. >59
2. 305
3. ~1075
4. 3152
5. ~1138
6. >1613

For each of the items listed, what is its Ratio of JAK3 IC50 to IRAK4 IC50?
1. COc1cccc(-c2cc3ncc(C(=O)NC[C@@H](F)C(C)(C)O)c(NC(C)C)n3n2)n1
2. CC(C)Nc1c(C(=O)NC2CCN(S(C)(=O)=O)CC2)cnn2cc(-c3ccncc3F)nc12

OUTPUT:
[">36", ">3846"]
